- Test system: Purkinje fiber of the right ventricular free wall (myocardial action potential)
- Procedure Text: Influence on myocardial action potential duration time (APD75), isolated right ventricular free wall, microelectrode in Purkinje fiber
- Assay type: cell-based, dog
- Condition Notes: Canis lupus familiaris, 20 min, 3.0 μg/ml, 20 minutes' incubation, (B-A)/A×100, read-out: APD75 (%)
Structures can show the parent of a compound that is named as a salt.
Measure Name: activation at 3 µg/mL (%)
Numeric answer only, unit % assumed.

input: Quick check: activation at 3 µg/mL of Cn1c(N2CCN(CCCc3ccc(C(=O)c4ccccc4)cc3[N+](=O)[O-])CC2)cc(=O)n(C)c1=O [Compound 136, hydrochloride] ?
output: 14

input: Quick check: activation at 3 µg/mL of COc1cc([N+](=O)[O-])ccc1OCCCN1CCN(c2cc(=O)n(C)c(=O)n2C)CC1 [Compound 164, hydrochloride] ?
output: 8

Others:
input: Quick check: activation at 3 µg/mL of Cn1c(N2CCN(CC(=O)c3ccc([N+](=O)[O-])cc3)CC2)cc(=O)n(C)c1=O [Compound 42, hydrochloride] ?
output: 10

input: Quick check: activation at 3 µg/mL of Cn1c(N2CCN(CC(O)c3ccc([N+](=O)[O-])cc3)CC2)cc(=O)n(C)c1=O (centres unmarked) [Compound 44, hydrochloride] ?
output: 13

input: Quick check: activation at 3 µg/mL of CC(=O)OCCN(CCCc1ccc([N+](=O)[O-])cc1)CCNc1cc(=O)n(C)c(=O)n1C [Compound 167, oxalate] ?
output: 21

input: Quick check: activation at 3 µg/mL of CCN(CCNc1cc(=O)n(C)c(=O)n1C)CCc1ccc([N+](=O)[O-])cc1 ?
output: 27

input: Quick check: activation at 3 µg/mL of Cn1c(N2CCN(CCCOc3cc([N+](=O)[O-])ccc3O)CC2)cc(=O)n(C)c1=O [Compound 145, hydrochloride] ?
output: 16

input: Quick check: activation at 3 µg/mL of Cn1c(N2CCN(CCOc3ccc([N+](=O)[O-])cc3C(=O)c3ccccc3)CC2)cc(=O)n(C)c1=O ?
output: 22

---

- Procedure Text: Toxicity test, mortality rate 24 hours after administration
- Condition Notes: mouse, in vivo, po, 300 mg/kg (p.o.)
Where a name gives a salt, the structure may show the parent alone.
List of mortality at 24 h values.
Answer with the figure and its unit, nothing else.

For orientation, consider the following solved cases.
input: Quick check: mortality at 24 h of CC(=O)c1ccc(OCCCN2CCN(c3cc(=O)n(C)c(=O)n3C)CC2)c([N+](=O)[O-])c1 [Compound 77, oxalate] ?
output: 0%

input: Quick check: mortality at 24 h of Cn1c(N2CCN(CCc3ccc([N+](=O)[O-])cc3C(=O)c3ccccc3)CC2)cc(=O)n(C)c1=O [Compound 133, oxalate] ?
output: 0%

input: Quick check: mortality at 24 h of Cn1c(N2CCN(CCCOc3c(Cl)cc([N+](=O)[O-])cc3Cl)CC2)cc(=O)n(C)c1=O [Compound 165, hydrochloride] ?
output: 0%

Others:
input: Quick check: mortality at 24 h of Cn1c(N2CCN(CCOc3ccc(C(=O)c4ccccc4)cc3[N+](=O)[O-])CC2)cc(=O)n(C)c1=O ?
output: 0%

input: Quick check: mortality at 24 h of Cn1c(NCCNC(=O)c2ccc([N+](=O)[O-])cc2)cc(=O)n(C)c1=O ?
output: 50%

input: Quick check: mortality at 24 h of CCN(CCCCc1ccc([N+](=O)[O-])cc1)CCNc1cc(=O)n(C)c(=O)n1C ?
output: 0%

input: Quick check: mortality at 24 h of CCN(CCNc1ccc([N+](=O)[O-])cc1)CCNc1cc(=O)n(C)c(=O)n1C [Compound 71, oxalate] ?
output: 0%

Values from patent US5008267A
